Origin of the recorded values: patent US9386767B2

- test.system: human cytochrome CYP3A4 (Homo sapiens)
- Sequence (P08684 whole entry): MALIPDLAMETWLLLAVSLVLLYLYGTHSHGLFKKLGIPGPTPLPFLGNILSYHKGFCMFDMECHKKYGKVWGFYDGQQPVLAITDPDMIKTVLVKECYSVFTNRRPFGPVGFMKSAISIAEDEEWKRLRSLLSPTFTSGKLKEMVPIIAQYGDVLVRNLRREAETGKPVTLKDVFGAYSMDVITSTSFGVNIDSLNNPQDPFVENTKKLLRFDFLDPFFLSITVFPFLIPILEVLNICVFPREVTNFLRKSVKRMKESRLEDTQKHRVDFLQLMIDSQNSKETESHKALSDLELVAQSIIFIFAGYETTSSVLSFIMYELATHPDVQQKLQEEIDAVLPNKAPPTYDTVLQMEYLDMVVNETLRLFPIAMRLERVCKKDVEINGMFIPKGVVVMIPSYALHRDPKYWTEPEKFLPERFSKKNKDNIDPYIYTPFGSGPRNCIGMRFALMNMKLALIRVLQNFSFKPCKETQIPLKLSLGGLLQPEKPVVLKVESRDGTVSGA
- test.protocol: CYP3A4 inhibition assay of dillapiol derivatives (earlier benzyloxyresorufin assay)
- Format: biochemical
- setup.conditions: Table 1; CYP3A4 inhibition; read-out: IC50
Task for the reader: assign each of the following compounds its reported log10 IC50.
# values: log10(IC50), units µM

Reported log10 IC50 for C=CCc1cc2c(c(C(O)CCCCCCCC)c1OC)OCO2 (centres unmarked) [Compound 2] : what is it?
1.41

C=CCc1cc2c(cc1O)OCO2 [Compound 14] , same question.
2.74

C=CCc1cc2c(c(OCCCCCCCC)c1OC)OCO2 [Compound 3] , same question.
2.51

C=CCc1cc2c(c(/C=C/C(=O)OC)c1OC)OCO2 [Compound 6] , same question.
2.38

COc1c(/C=C/CC(O)(c2ccccc2)c2ccccc2)cc2c(c1OC)OCO2 [Compound 1] , same question.
0.56

C=CCc1cc2c(c([S+]([O-])c3ccccc3)c1OC)OCO2 (centres unmarked) [Compound 26] , same question.
2.18

C=CCc1cc2c(c(CC=C)c1O)OCO2 [Compound 11] , same question.
2.32

C=CCc1cc2c(c([S+]([O-])Cc3ccccc3)c1OC)OCO2 (centres unmarked) [Compound 27] , same question.
1.81
